The entries below are paired with their reported mortality at 200 ppm.
# Test system: Sweetpotato Whitefly-Crawler (WF) (Bemisia tabaci) (BEMITA)
# ASSAY: Insecticidal test for Sweetpotato Whitefly-Crawler (WF) in foliar spray assay on cotton plants
# Type: in vivo
# CONDITION_NOTES: 216 h, 200 ppm foliar spray on cotton plants, graded after 9 days, Abbott corrected % control, read-out: WF 200 ppm, % Control (or Mortality) rating

Given the entry CCN(C(=O)CC/C(=N/OCCCCC(F)(F)F)c1cccs1)c1cn(-c2cccnc2)nc1Cl , report its measured mortality at 200 ppm.
80 to 100%

And then CCN(C(=O)CCNC(=O)CCC(F)(F)F)c1cn(-c2cccnc2)nc1Cl , what is it?
80 to 100%

Same lookup for CCN(C(=O)CC/C(=N\OCCCC(F)(F)F)c1cccs1)c1cn(-c2cccnc2)nc1Cl , please.
80 to 100%

Also, CCN(C(=O)CCC(=O)NCC(F)(F)F)c1cn(-c2cccnc2)nc1Cl please.
80 to 100%

* * *

# System: Green Peach Aphid (GPA) (Myzus persicae) (MYZUPE)
# ASSAY: Bioassay for Green Peach Aphid (GPA), foliar spray on cabbage seedlings
# Type: in vivo
# CONDITION_NOTES: 72 h, 200 ppm foliar spray on cabbage seedlings, graded after three days, Abbott corrected % control, read-out: GPA 200 ppm, % Control (or Mortality) rating
Some compounds, each annotated with its measured mortality at 200 ppm.

Some compounds with known mortality at 200 ppm results, for comparison:
| COMPOUND | MEASURED |
| --- | --- |
| CCN(C(=O)CC/C(C)=N/OCC1CC1(F)F)c1cn(-c2cccnc2)nc1Cl (mixture of isomers) | 80 to 100% |
| CCN(C(=O)CCN(CC(F)F)C(=O)C1CC1(F)F)c1cn(-c2cccnc2)nc1Cl (centres unmarked) | 0 to 80% |

Would you kindly share the measured mortality at 200 ppm for CCN(C(=O)CCN1CCCCC1=O)c1cn(-c2cccnc2)nc1Cl ?
80 to 100%

// query: CCN(C(=O)CC1CN(Cc2ccc(C(F)(F)F)cc2)C1=O)c1cn(-c2cccnc2)nc1Cl (centres unmarked)
0 to 80%

* * *

# Tested on: Sweetpotato Whitefly-Crawler (WF) (Bemisia tabaci) (BEMITA)
# ASSAY: Insecticidal test for Sweetpotato Whitefly-Crawler (WF) in foliar spray assay on cotton plants
# Format: in vivo
# CONDITION_NOTES: 216 h, 200 ppm foliar spray on cotton plants, graded after 9 days, Abbott corrected % control, read-out: WF 200 ppm, % Control (or Mortality) rating
Below, each entry is listed alongside its reported mortality at 200 ppm.

# value lookup — system Sweetpotato Whitefly-Crawler (WF) (Bemisia tabaci) (BEMITA), readout mortality at 200 ppm, item CCN(C(=O)COC(C)=O)c1cn(-c2cccnc2)nc1Cl
80 to 100%

Now give it for CCN(C(=O)C1CCCN(C(=O)C(F)(F)F)C1)c1cn(-c2cccnc2)nc1Cl (stereo not drawn) too.
0 to 80%

Please do the same for CC(=O)N[C@@H]1C=C[C@H](C(=O)N(C)c2cn(-c3cccnc3)nc2Cl)C1 as well.
80 to 100%

* * *

# Test system: Green Peach Aphid (GPA) (Myzus persicae) (MYZUPE)
# ASSAY: Bioassay for Green Peach Aphid (GPA), foliar spray on cabbage seedlings
# Format: in vivo
# CONDITION_NOTES: foliar, 72 h, read-out: GPA 200 ppm, % Control (or Mortality) rating
EXPERIMENTAL_READOUT: mortality at 200 ppm

Here's what some known entries look like.
| MOLECULE | mortality at 200 ppm |
| --- | --- |
| CC(C)(C)[Si](C)(C)N1CC(CCCC(=O)O)C1=O (stereo not drawn) [Compound C5] | 0 to 80% |
| CCN(C(=O)C(C)OC(=O)N(C)C)c1cn(-c2cccnc2)nc1Cl (stereo not drawn) [Compound F93] | 80 to 100% |

Proceeding to the next molecule to report its mortality at 200 ppm.
Value lookup for mortality at 200 ppm; key = CCN(C(=O)CN(C)C(=O)OC(C)(C)C)c1cn(-c2cccnc2)nc1Cl [Compound F4]
80 to 100%
